Tested on: 388556-164-R-J1-PDC complex spheroid viability;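 note: spheroids exposed to compound for 7 days before readout; 100% = DMSO vehicle control luminescence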
Assay: Anticancer human tumor 388556-164-R-J1-PDC patient-derived colon adenocarcinoma cell line growth inhibition [RAS]
Conditions: second compound 1 µM; first compound 0.01 µM; hits give low values
From the text: RAS pathway inhibitors in Combinations in Complex Spheroids A high-throughput screen of multi-cell type tumor spheroids was designed to identify active combinations of RAS pathway inhibitors and targeted small molecules. Complex spheroids include a stromal component modeled by human endothelial cells (HUVEC) and fibroblasts modeled by human mesenchymal stem cells (MSCs). […] Compounds. […] If the clinical Cmax for an agent had not been determined, the highest concentration tested was 10 microM. […]
In plain terms, low viability, T/C, meaning strictly below 90%, gives 1, and everything else gives -1.

Please review the entries below; each comes with its answer.
CC(C)n1nc(-c2ccc3oc(N)nc3c2)c2c(N)ncnc21 + C=CC(=O)N1CCN(c2nc(OCC3CCCN3C)nc3c(F)c(-c4nc(N)cc(C)c4C(F)(F)F)c(Cl)cc23)C(C)C1 : 1
CC(C)n1nc(-c2ccc3oc(N)nc3c2)c2c(N)ncnc21 + C#Cc1c(F)ccc2cc(O)cc(-c3ncc4c(N5CC6CCC(C5)N6)nc(OCC56CCCN5CC(F)C6)nc4c3F)c12 : 1
Nc1ccn(C2OC(CO)C(O)C2(F)F)c(=O)n1 (stereo unspecified) + C=CC(=O)N1CCN(c2nc(OCC3CCCN3C)nc3c(F)c(-c4nc(N)cc(C)c4C(F)(F)F)c(Cl)cc23)C(C)C1 : 1
O=C(c1ccc(F)c(F)c1Nc1ccc(I)cc1F)N1CC(O)([C@@H]2CCCCN2)C1 + C#Cc1c(F)ccc2cc(O)cc(-c3ncc4c(N5CC6CCC(C5)N6)nc(OCC56CCCN5CC(F)C6)nc4c3F)c12 : 1
CCN1CCN(Cc2ccc(Nc3ncc(F)c(-c4cc(F)c5nc(C)n(C(C)C)c5c4)n3)nc2)CC1 + C#Cc1c(F)ccc2cc(O)cc(-c3ncc4c(N5CC6CCC(C5)N6)nc(OCC56CCCN5CC(F)C6)nc4c3F)c12 : -1
O=C(c1ccc(F)c(F)c1Nc1ccc(I)cc1F)N1CC(O)([C@@H]2CCCCN2)C1 + C=CC(=O)N1CCN(c2nc(OCC3CCCN3C)nc3c(F)c(-c4nc(N)cc(C)c4C(F)(F)F)c(Cl)cc23)C(C)C1 : -1
Nc1ccn(C2OC(CO)C(O)C2(F)F)c(=O)n1 (stereo unspecified) + C#Cc1c(F)ccc2cc(O)cc(-c3ncc4c(N5CC6CCC(C5)N6)nc(OCC56CCCN5CC(F)C6)nc4c3F)c12 : 1
CCN1CCN(Cc2ccc(Nc3ncc(F)c(-c4cc(F)c5nc(C)n(C(C)C)c5c4)n3)nc2)CC1 + C=CC(=O)N1CCN(c2nc(OCC3CCCN3C)nc3c(F)c(-c4nc(N)cc(C)c4C(F)(F)F)c(Cl)cc23)C(C)C1 : -1
C=CC(=O)Nc1cc(Nc2nccc(-c3cn(C)c4ccccc34)n2)c(OC)cc1N(C)CCN(C)C + C=CC(=O)N1CCN(c2nc(OCC3CCCN3C)nc3c(F)c(-c4nc(N)cc(C)c4C(F)(F)F)c(Cl)cc23)C(C)C1 : -1
C=CC(=O)N1CCN(c2nc(OCC3CCCN3C)nc3c(F)c(-c4nc(N)cc(C)c4C(F)(F)F)c(Cl)cc23)C(C)C1 (stereo unspecified) + C#Cc1c(F)ccc2cc(O)cc(-c3ncc4c(N5CC6CCC(C5)N6)nc(OCC56CCCN5CC(F)C6)nc4c3F)c12 : -1

query: viability, T/C strictly < 90% for this compound? C=CC(=O)Nc1cc(Nc2nccc(-c3cn(C)c4ccccc34)n2)c(OC)cc1N(C)CCN(C)C + C#Cc1c(F)ccc2cc(O)cc(-c3ncc4c(N5CC6CCC(C5)N6)nc(OCC56CCCN5CC(F)C6)nc4c3F)c12
result: -1
